# target-desc: Maternal embryonic leucine zipper kinase (Homo sapiens);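 also: reported figure is the mean percent inhibition of MELK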
# test-conditions: at 0.1 µM
recorded-metric: inhibition (%)

[[record]]
smiles_structure = "NS(=O)(=O)c1ccc(Nc2cc(-c3ccc(O)c(F)c3)n[nH]2)cc1"
u = "%"
experimental_result = -5.49

[[record]]
smiles_structure = "O=C(Nc1n[nH]c2nc(-c3ccco3)ccc12)C1CC1"
u = "%"
experimental_result = 2.23

[[record]]
smiles_structure = "Cc1ccc(C(=O)NC2CCC2)cc1-c1ccc(C(=O)NCC2CC2)cc1"
u = "%"
experimental_result = 3.33

[[record]]
smiles_structure = "O=C(Nc1n[nH]c2cc(-c3ccccc3)ccc12)C1CC1"
u = "%"
experimental_result = 5.64

[[record]]
smiles_structure = "O=C(Nc1n[nH]c2nc(-c3ccc(O)cc3)c(Br)cc12)C1CC1"
u = "%"
experimental_result = 6.28

[[record]]
smiles_structure = "O=C(NCC1CC1)c1ccc(-c2cccc(C(=O)NC3CC3)c2)cc1"
u = "%"
experimental_result = 1.66


====

inhibition by entry:
# target-desc: Protein kinase C gamma type (Homo sapiens) (UniProt P05129);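 also: values are mean percent inhibition of PKC gamma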
# test-conditions: at 0.1 µM
recorded-metric: inhibition (%)

[[record]]
compound = "Nc1nccc(-c2c(-c3ccc(F)cc3)ncn2C2CCC(O)CC2)n1 (stereo unspecified)"
recorded_metric = "inhibition"
experimental_result = -3.99

[[record]]
compound = "COc1cc(Nc2ncc(-c3ccccc3)o2)cc(OC)c1OC"
recorded_metric = "inhibition"
experimental_result = -1

[[record]]
compound = "CCC(=O)Nc1ccc(C)c(-c2ccc(C(=O)NCC3CC3)cc2)c1"
recorded_metric = "inhibition"
experimental_result = 0.1

[[record]]
compound = "c1ccc(Oc2ccc(Nc3ncc(-c4ccccc4)o3)cc2)cc1"
recorded_metric = "inhibition"
experimental_result = 1.13

[[record]]
compound = "CCN(CC)Cc1ccc(Nc2nccc(-c3cnn4ncccc34)n2)cc1"
recorded_metric = "inhibition"
experimental_result = 0.4

[[record]]
compound = "CNC(=O)c1cncc(/C=C/c2c(C)cccc2C)c1"
recorded_metric = "inhibition"
experimental_result = -0.51


====

# target-desc: Phosphatidylinositol 4-kinase beta (Homo sapiens) (UniProt Q9UBF8);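 also: values given are mean percent inhibition of PI4K-beta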
# Sequence (Q9UBF8 2-816 limits assumed): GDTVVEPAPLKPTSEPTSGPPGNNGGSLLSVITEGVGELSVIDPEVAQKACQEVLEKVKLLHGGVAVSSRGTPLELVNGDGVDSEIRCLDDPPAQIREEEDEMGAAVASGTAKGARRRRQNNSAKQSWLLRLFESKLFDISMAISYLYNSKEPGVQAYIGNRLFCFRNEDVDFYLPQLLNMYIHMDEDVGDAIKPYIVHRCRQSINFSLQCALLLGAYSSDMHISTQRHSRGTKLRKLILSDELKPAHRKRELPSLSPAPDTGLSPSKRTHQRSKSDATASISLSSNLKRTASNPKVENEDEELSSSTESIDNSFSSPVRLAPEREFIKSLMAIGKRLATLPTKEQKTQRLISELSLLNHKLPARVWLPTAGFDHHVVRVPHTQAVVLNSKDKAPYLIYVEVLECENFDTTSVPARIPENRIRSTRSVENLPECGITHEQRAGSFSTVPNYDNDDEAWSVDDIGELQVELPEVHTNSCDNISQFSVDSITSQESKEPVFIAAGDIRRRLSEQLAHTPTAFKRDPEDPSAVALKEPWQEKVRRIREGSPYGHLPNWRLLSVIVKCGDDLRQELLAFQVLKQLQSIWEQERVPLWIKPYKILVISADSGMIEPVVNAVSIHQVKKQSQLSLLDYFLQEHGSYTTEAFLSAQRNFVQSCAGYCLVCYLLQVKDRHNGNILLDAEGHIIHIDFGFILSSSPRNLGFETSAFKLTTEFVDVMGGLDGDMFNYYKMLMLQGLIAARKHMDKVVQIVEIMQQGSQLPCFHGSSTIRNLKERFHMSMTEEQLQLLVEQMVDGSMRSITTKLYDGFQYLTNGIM
# test-conditions: at 0.1 µM
inhibition by entry:
recorded-metric: inhibition (%)

[[record]]
molecule = "Cc1ccc(NC(=O)c2ccoc2)cc1-c1ccc(C(=O)NCC2CC2)cc1"
recorded_metric = "inhibition"
experimental_result = 1.89

[[record]]
molecule = "C[C@@H](Oc1cc(-n2cnc3ccc(OC4CCN(C)CC4)cc32)sc1C(N)=O)c1ccccc1Cl"
recorded_metric = "inhibition"
experimental_result = -3.18

[[record]]
molecule = "COc1ccc(C2=C(N3CCc4ccccc43)C(=O)NC2=O)cc1"
recorded_metric = "inhibition"
experimental_result = 3.23

[[record]]
molecule = "FC(F)(F)c1cccc(Nc2nccc(-c3cnn4nc(-c5ccccc5)ccc34)n2)c1"
recorded_metric = "inhibition"
experimental_result = -0.22

[[record]]
molecule = "O=C(Nc1n[nH]c2cc(-c3ccccc3)ccc12)C1CC1"
recorded_metric = "inhibition"
experimental_result = -5.9

[[record]]
molecule = "COc1cc(Nc2ncc(-c3ccccc3)o2)cc(OC)c1OC"
recorded_metric = "inhibition"
experimental_result = 11.5

[[record]]
molecule = "Fc1ccc(-c2nc3n(c2-c2ccncc2)CCS3)cc1"
recorded_metric = "inhibition"
experimental_result = -3.93

[[record]]
molecule = "COc1ccc2cc(-c3c(-c4ccncc4)nc(-c4ccc([S+](C)[O-])cc4C)n3C)ccc2c1 (centres undefined)"
recorded_metric = "inhibition"
experimental_result = 2.91

[[record]]
molecule = "COc1cc(C)c(N(C)C(=O)CN(C)C)cc1Nc1nc(Nc2cccc(F)c2C(N)=O)c2cc[nH]c2n1"
recorded_metric = "inhibition"
experimental_result = 3.54


====

# target-desc: Serine/threonine-protein kinase PAK 3 (Homo sapiens);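 also: mean percent inhibition of PAK3, measured in a screen of the GSK published kinase inhibitor set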
# test-conditions: at 0.1 µM
inhibition by entry:
recorded-metric: inhibition (%)

[[record]]
smiles_structure = "Fc1ccc(-c2ncn(C3CCNCC3)c2-c2ccnc(Oc3ccc4c(c3)OCO4)n2)cc1"
u = "%"
experimental_result = 6.04

[[record]]
smiles_structure = "Cc1ccc(C(=O)NC2CCC2)cc1-c1ccc(C(=O)NCC2CC2)cc1"
u = "%"
experimental_result = 3.41

[[record]]
smiles_structure = "COc1ccc2cc(-c3c(-c4ccncc4)nc(-c4ccc(S(C)(=O)=O)cc4C)n3C)ccc2c1"
u = "%"
experimental_result = 5.62

[[record]]
smiles_structure = "COc1cc(N2CCN(C(C)C)CC2)ccc1Nc1nc(Nc2ccc(F)cc2C(=O)NC[C@@H](O)CO)c2cc[nH]c2n1"
u = "%"
experimental_result = 4.85

[[record]]
smiles_structure = "NC(=O)Cc1ccccc1Oc1nccc(-c2c(-c3ccc(F)cc3)ncn2C2CCNCC2)n1"
u = "%"
experimental_result = 0.09

[[record]]
smiles_structure = "CCc1cccc(CC)c1/C=C/c1cncc(C(=O)NC)c1"
u = "%"
experimental_result = 2.61

[[record]]
smiles_structure = "N#Cc1ccc(Oc2nccc(-c3c(-c4ccc(F)cc4)ncn3C3CCNCC3)n2)cc1"
u = "%"
experimental_result = 4.55

[[record]]
smiles_structure = "O=C(Nc1n[nH]c2cc(-c3ccccc3)ccc12)C1CC1"
u = "%"
experimental_result = 5.22

[[record]]
smiles_structure = "O=C(Nc1n[nH]c2cc(-c3cc(F)ccc3F)ccc12)C1CC1"
u = "%"
experimental_result = 2.86

[[record]]
smiles_structure = "COc1cc(Nc2ncc3c(C)nc(-c4cccc(Oc5ccccc5)c4)n3n2)cc(OC)c1OC"
u = "%"
experimental_result = 2.09


====

# target-desc: Protein kinase C alpha type (Homo sapiens);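 also: each value is the mean percent inhibition of PKC-alpha kinase activity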
# test-conditions: at 0.1 µM
recorded-metric: inhibition (%)

[[record]]
smiles_structure = "CCc1ccc(Oc2nccc(-c3c(-c4ccc(F)cc4)ncn3C3CCNCC3)n2)cc1"
experimental_result = 0.98

[[record]]
smiles_structure = "COc1cc2ncn(-c3cc(OCc4ccccc4C(F)(F)F)c(C(C)=O)s3)c2cc1OC"
experimental_result = -0.12

[[record]]
smiles_structure = "COc1cc2ncn(-c3cc(OCCc4ccccc4)c(C(N)=O)s3)c2cc1OC"
experimental_result = 0.95

[[record]]
smiles_structure = "CNC(=O)c1cncc(/C=C/c2c(C)cccc2C)c1"
experimental_result = -2.57

[[record]]
smiles_structure = "CCS(=O)(=O)c1ccc(OC)c(Nc2ncc(-c3ccccc3Cl)o2)c1"
experimental_result = 0.48

[[record]]
smiles_structure = "O=C(Nc1n[nH]c2nc(-c3ccc(O)cc3)c(Br)cc12)C1CC1"
experimental_result = 5.38

[[record]]
smiles_structure = "c1ccc(Oc2ccc(Nc3ncc(-c4ccccc4)o3)cc2)cc1"
experimental_result = 1.03

[[record]]
smiles_structure = "C#Cc1cccc(Nc2ncnc3ccc(OCCCCNCCS(C)(=O)=O)cc23)c1"
experimental_result = -2.51


====

inhibition by entry:
# target-desc: Serine/threonine-protein kinase BRSK2 (Homo sapiens);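 also: values are mean inhibition of BRSK2 from the GSK PKIS screening dataset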
# test-conditions: at 0.1 µM
recorded-metric: inhibition

[[record]]
molecule = "COc1ccc2cc(-c3c(-c4ccncc4)nc(-c4ccc([S+](C)[O-])cc4C)n3C)ccc2c1 (stereo not given)"
experimental_result = "0.33%"

[[record]]
molecule = "COc1cc2ncn(-c3cc(OCc4ccccc4C(F)(F)F)c(C(C)=O)s3)c2cc1OC"
experimental_result = "3.99%"

[[record]]
molecule = "O=C1NC(=O)C(c2cccc(Cl)c2)=C1Nc1ccc(Cl)c(C(=O)O)c1"
experimental_result = "1.73%"

[[record]]
molecule = "CS(=O)(=O)CCNCc1cc(-c2cc3c(Nc4ccc(OCc5cccc(F)c5)c(Cl)c4)ncnc3s2)cs1"
experimental_result = "0.67%"

[[record]]
molecule = "Cc1ccc(C(=O)NC(C)C)cc1-c1ccc(C(=O)NCC2CC2)cc1"
experimental_result = "0.51%"

[[record]]
molecule = "COc1cc2ncn(-c3cc(OCCc4ccccc4)c(C(N)=O)s3)c2cc1OC"
experimental_result = "58.3%"

[[record]]
molecule = "O=C(Nc1n[nH]c2nc(-c3ccc(O)cc3)c(Br)cc12)C1CC1"
experimental_result = "33.5%"

[[record]]
molecule = "COc1ccc2ncn(-c3cc(O[C@H](C)c4ccccc4Cl)c(C(N)=O)s3)c2c1"
experimental_result = "6.22%"

[[record]]
molecule = "CCC(=O)Nc1ccc(C)c(-c2ccc(C(=O)NCC3CC3)cc2)c1"
experimental_result = "1.47%"

[[record]]
molecule = "O=C(Nc1n[nH]c2cc(-c3cc(F)ccc3F)ccc12)C1CC1"
experimental_result = "3.03%"

[[record]]
molecule = "C#Cc1cccc(Nc2ncnc3ccc(OCCCCNCCS(C)(=O)=O)cc23)c1"
experimental_result = "3.96%"

[[record]]
molecule = "COc1ccc(-c2ccc3c(NC(=O)C4CC4)n[nH]c3n2)cc1"
experimental_result = "3.16%"

[[record]]
molecule = "O=C(Nc1n[nH]c2cc(-c3ccccc3)ccc12)C1CC1"
experimental_result = "3.64%"

[[record]]
molecule = "O=C1Nc2ccccc2/C1=C/Nc1ccc(-n2cncn2)cc1"
experimental_result = "4.08%"

[[record]]
molecule = "NS(=O)(=O)c1ccc(N/N=C2\\C(=O)Nc3ccc(-c4cnco4)cc32)cc1"
experimental_result = "3.56%"

[[record]]
molecule = "CCS(=O)(=O)c1ccc(OC)c(Nc2ncc(-c3ccccc3Cl)o2)c1"
experimental_result = "0.64%"

[[record]]
molecule = "COc1cc(Nc2ncc3c(C)nc(-c4cccc(C(F)(F)F)c4)n3n2)cc(OC)c1OC"
experimental_result = "5.62%"

[[record]]
molecule = "COC(=O)Nc1nc2ccc(Sc3ccc(NC(=O)Nc4cc(C(F)(F)F)ccc4F)cc3)cc2[nH]1"
experimental_result = "-0.46%"

[[record]]
molecule = "COc1cc(C)c(N(C)C(=O)CN(C)C)cc1Nc1nc(Nc2cccc(F)c2C(N)=O)c2cc[nH]c2n1"
experimental_result = "0.05%"

[[record]]
molecule = "CCN(CC)Cc1ccc(Nc2nccc(-c3cnn4ncccc34)n2)cc1"
experimental_result = "2.2%"

